Data credit: patent US20260306502A1

- Tested on: LX-2 cells (human hepatic stellate cells)
- Assay Text: Inhibition of TGFβ-induced hepatic stellate cell differentiation into myofibroblast-like cells
- Type: cell-based
- Condition Parameters: Homo sapiens, LX-2; hepatic stellate cell differentiation to myofibroblast-like cells, TGFβ 10 ng/ml, 24 hours; read-out: Minimal inhibitory concentration
Measured Metric: minimal effective concentration (µM)
Give bare numbers, in µM.

[
  {
    "Compound String": "Cl.O=C(Nc1nc2ccc(C(F)(F)F)cc2s1)c1cc(Cl)cc(CN2CCOCC2)c1O",
    "minimal effective concentration / µM": 5
  },
  {
    "Compound String": "O=C(Nc1nc2ccc(C(F)(F)F)cc2s1)c1cc(Cl)cc(CN2CCCC2)c1O",
    "minimal effective concentration / µM": 5
  },
  {
    "Compound String": "COCCN(CCOC)Cc1cc(Cl)cc(C(=O)Nc2nc3ccc(C(F)(F)F)cc3s2)c1O",
    "minimal effective concentration / µM": 7.5
  }
]

Input: Look up minimal effective concentration: COCCOCc1cc(C(F)(F)F)cc2sc(NC(=O)c3cc(Cl)cc(CN4C[C@@H](C)O[C@@H](C)C4)c3O)nc12
Output: 1

---

- Assay Text: PO pharmacokinetic study, oral exposure (Example B3)
- Assay type: in vivo
- Condition Parameters: blood, po, 50 mg/kg, 24 hr
Measured Metric: AUC(0-t) at 24 h

Input: Look up AUC(0-t) at 24 h: O=C(Nc1ccc([N+](=O)[O-])cc1Cl)c1cc(Cl)ccc1O [niclosamide ethanolamine]
Output: ~1800 ng·h/mL
